Just for reference, ChEMBL document CHEMBL3217594 is where these values come from.

measurement-target: Chromobox protein homolog 7 (Homo sapiens)
test-method-notes: Antagonist activity at Flag-tagged CBX7 (unknown origin) assessed as inhibition of CBX7/biotinylated H3K9Me3 peptide interaction at 30 uM after 30 mins by AlphaScreen assay
Active and inactive are the calls of the source. The calls are words filed in the database; no cut-off is given here.
result-type: inhibition

Some entries whose results are on file:
| molecule | inhibition |
| --- | --- |
| O=C(c1cccc(Br)c1)N1CCC(N2CCC2)CC1 | 11% |
| O=C(c1ccccc1Br)N1CCC(N2CCCC2)CC1 | 17% |
| CN1CCCC1C1CCN(C(=O)c2cccc(Br)c2)CC1 (stereo unspecified) | inactive |
| O=C(c1cccc(Br)c1)N1CCC(N2CCCC2)CC1 | 11% |
| O=C(c1cccc(Br)c1)N1CCC(N2CCCC2)C1 (stereo unspecified) | 4% |
| O=C(c1cccc(Br)c1)N1CCN(C2CCCC2)CC1 | 1% |
| O=C(c1cccc(Br)c1)N1CCCC(N2CCCC2)CC1 (stereo unspecified) | 13% |
| O=C(c1cccc(Br)c1)N1CCC(N2CCCCC2)CC1 | 3% |

Please give the measured inhibition for this molecule: O=C(c1ccccc1)N1CCC(N2CCCC2)CC1
inactive

Please give the measured inhibition for this molecule: C[N+]1(C2CCN(C(=O)c3cccc(Br)c3)CC2)CCCC1
17%

Please give the measured inhibition for this molecule: CN(C)C1CCN(C(=O)c2cccc(Br)c2)CC1
inactive
